B1: glmS ribozyme (parent)
chain: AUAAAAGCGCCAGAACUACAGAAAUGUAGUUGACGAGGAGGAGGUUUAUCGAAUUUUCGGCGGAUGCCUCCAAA

Variants of: B1
Experiment: self-cleavage kobs at 40 uM GlcN6P; higher = faster cleavage; RNA array
Conditions: with glucosamine-6-phosphate
Variants at the floor of the assay were thinned out.
Please respond with reported self-cleavage kobs at 40 uM GlcN6P for every item in the list.

Lookup: What value of measured self-cleavage kobs at 40 uM GlcN6P is listed for G37A A42G ?
Found: 8.75e-05 s⁻¹

Lookup: For G37A C71U then?
Found: 4.51e-05 s⁻¹

Lookup: Note, next up: U46C A52U
Found: < 1e-05 s⁻¹

Lookup: Param item: G37U A39U U45G G51A G59A
Found: < 1e-05 s⁻¹

Lookup: Param item: G29C C58U C71U
Found: < 1e-05 s⁻¹

Lookup: What would you report for C11U G13A A33C A53U ?
Found: < 1e-05 s⁻¹

Lookup: Again, but for C8A A36U
Found: < 1e-05 s⁻¹

Lookup: Could you do the same for U57C G62U U65C , please?
Found: < 1e-05 s⁻¹

Lookup: Note, next up: G44C U45C
Found: < 1e-05 s⁻¹

Lookup: Continue with A42G U45A U49C
Found: < 1e-05 s⁻¹

Lookup: Repeat with U46C U69C
Found: 5.23e-05 s⁻¹

Lookup: Thanks! And U56G C71A ?
Found: 8.72e-05 s⁻¹

Lookup: What would you report for A42U A53G U56C C71U ?
Found: < 1e-05 s⁻¹

Lookup: Next variant: A6U G38U A48U A52G C68A U69G
Found: 7.26e-05 s⁻¹

Lookup: How about this variant: A14U A39U
Found: 0.000133 s⁻¹

Lookup: What would you report for A52C A64G ?
Found: < 1e-05 s⁻¹

Lookup: Would you mind doing A6G G32U U46G as well?
Found: < 1e-05 s⁻¹

Lookup: Now consider A6U A33U A36G G38C U46G C61U and answer again.
Found: < 1e-05 s⁻¹

Lookup: Note, next up: G9U A33G G38U G44U C58A
Found: < 1e-05 s⁻¹

Lookup: Field entry: G7C U47G U56G G59U G60C
Found: < 1e-05 s⁻¹

Lookup: And then A14G A39C , what is it?
Found: 0.000225 s⁻¹

Lookup: Now give it for A42G C70G too.
Found: 4.1e-05 s⁻¹
